- Test system: SF-268
- protocol-notes: NCI tumour cell line growth inhibition, 48 h
Active and inactive are the calls of the source. Cut-off read from the data, not from the text of the source: active = GI50 up to about 1.1 µM and inactive = higher.
quantity-measured: GI50

Incoming: What value of GI50 has been recorded for this entry: CC1CC(=O)Nc2ccc(/N=N/N(C)C)cc2N1C=O (configuration not stated)
Outgoing: > 100 µM (inactive)

Incoming: Again, but for O=c1[nH]c(=O)n([C@H]2C[C@@H](CO)[C@@H](O)C2)cc1I
Outgoing: > 100 µM (inactive)

Incoming: Again, but for COC(=O)c1ccc(COC(=O)N2C=CCC2C(=O)O)cc1 (configuration not stated)
Outgoing: > 100 µM (inactive)

Incoming: Again, but for COc1ccc(N2C(=O)C3c4[nH]c5cccc(Cl)c5c4C4CCC(C(C)(C)C)CC4C3C2=O)cc1 (configuration not stated)
Outgoing: 50.6 µM (inactive)

Incoming: Again, but for CCOC(=O)c1cc2c([nH]1)c(OC(C)=O)cc1c2ccn1Cc1ccccc1
Outgoing: > 100 µM (inactive)

Incoming: Again, but for NC(=O)Cn1c(=O)[nH]c(=O)c2[nH]cnc21
Outgoing: > 100 µM (inactive)

Incoming: Again, but for CCCCCCC(N)(CCCCCC)C(=O)Nn1c(C)ccc1C
Outgoing: 16 µM (inactive)

Incoming: Again, but for C[C@@H]1OCC(O)C([C@H]2OC(c3ccccc3)=N[C@H]2CO)O1 (some centres not stated)
Outgoing: > 100 µM (inactive)

Incoming: Again, but for CC(=O)OC1CC2(C)C(OC(C)=O)CC1C2(C)C (configuration not stated)
Outgoing: > 100 µM (inactive)

Incoming: Again, but for CCOC(=O)/C(C#N)=C1\c2c([nH]c(=S)[nH]c2=O)Oc2ccc3ccccc3c21
Outgoing: 24.3 µM (inactive)

Incoming: Again, but for COC(=O)C(CCS(=O)(=O)CC(=O)C(=O)Nc1cccc(C(C)=O)c1)C(=O)OC
Outgoing: 0.586 µM (active)

Incoming: Again, but for CC1(C)[N+]([O-])=[N+]([O-])C1(C)O (configuration not stated)
Outgoing: > 100 µM (inactive)

Incoming: Again, but for Nc1ccc(C(=O)CC2(O)C(=O)Nc3ccccc32)cc1 (configuration not stated)
Outgoing: > 100 µM (inactive)

Incoming: Again, but for OCCOCn1nncc1Cn1ncc2c(SCc3ccccc3)ncnc21
Outgoing: > 100 µM (inactive)

Incoming: Again, but for CSC12c3cc(C)n(-c4ccc(I)cc4)c3CC(C)(C)CN1C(=O)C2Oc1ccccc1 (configuration not stated)
Outgoing: > 100 µM (inactive)

Incoming: Again, but for O=C(/C=C/c1ccccc1Cl)c1ccc(Cl)c(Cl)c1
Outgoing: 18.3 µM (inactive)

Incoming: Again, but for CC1=C2C(O)C(C(C)C(=O)NC(C)C)CCC2(C)C=CC1=O (configuration not stated)
Outgoing: > 100 µM (inactive)

Incoming: Again, but for Cc1[nH]c(=O)c2oc3cc4ccccc4cc3c2c1C(=O)O
Outgoing: > 10 µM (inactive)

Incoming: Again, but for COC(=O)C(C(=O)C(=O)Nc1nnc(S)[nH]1)c1csc(-n2nc(-c3ccccc3)cc2-c2ccccc2)n1 (configuration not stated)
Outgoing: > 100 µM (inactive)

Incoming: Again, but for CC/C(C)=C1\CCC(CN(C)C)C1=O (configuration not stated)
Outgoing: 25.4 µM (inactive)

Incoming: Again, but for COC(=O)C(Cc1ccc2c(c1)CCC2)Cc1ccc2c(c1)CCC2
Outgoing: 48.6 µM (inactive)

Incoming: Again, but for CCCC[C@H]1CCN2C[C@@H](O)[C@@H](O)[C@H]2[C@@H]1O
Outgoing: > 100 µM (inactive)

====

- System: HT-29
- protocol-notes: NCI tumour cell line growth inhibition, 48 h
Structures can show the parent of a compound that is named as a salt. Calls of active or inactive are those of the source. No stated cut-off is given here; in the data, active = GI50 up to about 1.1 µM and inactive = higher.
quantity-measured: GI50

Incoming: What value of GI50 has been recorded for this entry: CC[C@H](C)[C@H]1NC(=O)[C@@H](NC(=O)[C@@H](CC(C)C)N(C)C(=O)C2CCCN2C(=O)[C@H](C)O)[C@@H](C)OC(=O)[C@H](Cc2ccc(OC)cc2)N(C)C(=O)[C@@H]2CCCN2C(=O)[C@H](CCCCNC(=O)OCc2ccccc2)NC(=O)[C@H](C)C(=O)[C@H](C(C)C)OC(=O)C[C@@H]1O (some centres not stated)
Outgoing: 3.37 µM (inactive)

Incoming: Again, but for NC(=O)Cn1c(=O)[nH]c(=O)c2[nH]cnc21
Outgoing: > 100 µM (inactive)

Incoming: Again, but for O=C(/C=C/c1ccccc1Cl)c1ccc(Cl)c(Cl)c1
Outgoing: 19.8 µM (inactive)

Incoming: Again, but for NCCCN1CCN(CCCNc2ccc3nnn4c5ccccc5c(=O)c2c34)CC1
Outgoing: 13.3 µM (inactive)

Incoming: Again, but for O=C(O)COc1cccc2ccccc(=O)c12
Outgoing: > 100 µM (inactive)

Incoming: Again, but for O=C(O)CCC(C(=O)O)N1C(=O)c2ccccc2C1=O (configuration not stated)
Outgoing: > 100 µM (inactive)

Incoming: Again, but for COC(=O)[C@@H](COC(=O)/C=C/c1ccc(OC(C)=O)c(OC(C)=O)c1)NC(=O)/C=C/c1ccc(OC(C)=O)c(OC(C)=O)c1
Outgoing: 22.4 µM (inactive)

Incoming: Again, but for O=C(CC1(O)C(=O)Nc2c(Cl)cc(Cl)cc21)c1ccc(Br)cc1 (configuration not stated)
Outgoing: 37.7 µM (inactive)

Incoming: Again, but for Cc1ccc(-n2nncc2[Si](C)(C)C)s1
Outgoing: > 100 µM (inactive)

Incoming: Again, but for CC(C)CSCC1OC(n2cnc3c(N)nccc32)C(O)C1O (configuration not stated)
Outgoing: > 100 µM (inactive)

Incoming: Again, but for O=c1c(-c2c(-c3ccccc3)oc3ccc(Cl)cc3c2=O)c(-c2ccccc2)oc2ccc(Cl)cc12
Outgoing: > 100 µM (inactive)

Incoming: Again, but for CCCCCCC(N)(CCCCCC)C(=O)Nn1c(C)ccc1C
Outgoing: 28.4 µM (inactive)

Incoming: Again, but for CC(NC(C)(C)C)C(=O)c1cccc(Cl)c1 (configuration not stated) [BUPROPION HYDROCHLORIDE]
Outgoing: > 100 µM (inactive)

Incoming: Again, but for O=S(=O)(O)n1ccnc1
Outgoing: > 100 µM (inactive)

Incoming: Again, but for NC(=O)CCC(NC(=O)c1c2ccccc2nc2ccccc12)C(=O)O (configuration not stated)
Outgoing: > 100 µM (inactive)

Incoming: Again, but for O=C(O)C(Cc1ccccc1)N1C(=O)c2ccccc2C1=O (configuration not stated)
Outgoing: > 100 µM (inactive)

Incoming: Again, but for C[C@@H](c1ccccc1)N1CN(C(=O)OCc2ccccc2)C(CO)C1=O (some centres not stated)
Outgoing: 70.3 µM (inactive)

====

- System: NCI-H522
- protocol-notes: NCI tumour cell line growth inhibition, 48 h
Active and inactive are the calls of the source. Cut-off read from the data, not from the text of the source: active = GI50 up to about 1.1 µM and inactive = higher.
quantity-measured: GI50

Incoming: What value of GI50 has been recorded for this entry: CC(=O)OC1CC2C(C)(C)C(=O)C=C[C@]2(C)C2CCC3(C)C(c4ccoc4)[C@@H](O)[C@H]4O[C@]43[C@]12C (some centres not stated)
Outgoing: 14.6 µM (inactive)

Incoming: Again, but for O=c1[nH]c2cc3cccnc3c(Cl)c2nc1C(F)(F)F
Outgoing: 28.6 µM (inactive)

Incoming: Again, but for COC(=O)[C@]1(C)CC[C@]2(C)CC[C@]3(C)C4[C@H]5Oc6c(cc7c(c6C)CCC6[C@@]7(C)CC[C@@]7(C)C8[C@](C)(CCC[C@@]8(C)C(=O)OC)CC[C@]67C)O[C@H]5c5c(cc6c(c5C)O[C@@]5(C)C7=CC=C8[C@@](C)(CC[C@@]9(C)[C@@H]%10C[C@](C)(C(=O)OC)CC[C@]%10(C)CC[C@]89C)C7=CC(=O)[C@@]5(O)O6)[C@]4(C)CC[C@@]3(C)C2C1 (some centres not stated)
Outgoing: 2.49 µM (inactive)

Incoming: Again, but for CC1=C2C(=O)c3ccccc3C(=O)[C@H]2C[C@@H](N2CCCCCC2=O)O1
Outgoing: 19.9 µM (inactive)

Incoming: Again, but for COc1ccc(OC2OC(CO)C(O)C(O)C2O)cc1 (configuration not stated)
Outgoing: > 100 µM (inactive)

Incoming: Again, but for COC(=O)C1Cc2c([nH]c3ccccc23)C(C2CCCCC2)N1 (configuration not stated)
Outgoing: > 100 µM (inactive)

Incoming: Again, but for CS(=O)(=O)N(CC(=O)O)Cc1ccccc1
Outgoing: > 100 µM (inactive)

Incoming: Again, but for NC1=NN(c2ccccc2)C(=O)C1/C(=N\NC(=O)c1cc2ccccc2cc1O)C(=O)Nc1nc([N+](=O)[O-])cs1 (configuration not stated)
Outgoing: 19.1 µM (inactive)

Incoming: Again, but for CCOP(=O)(OCC)/C(C#N)=C/c1cccn1CC(C)C
Outgoing: 81.8 µM (inactive)

Incoming: Again, but for O=C(CCc1nnc2s/c(=C\c3ccc(Cl)c(Cl)c3)c(=O)n12)Nc1ccc(Cl)c(Cl)c1
Outgoing: 25.1 µM (inactive)

Incoming: Again, but for CSC12c3cc(C)n(-c4ccc(I)cc4)c3CC(C)(C)CN1C(=O)C2Oc1ccccc1 (configuration not stated)
Outgoing: > 100 µM (inactive)

Incoming: Again, but for Cc1c(C(=O)OCc2ccccc2)[n+]([O-])c2cc(F)c(F)cc2[n+]1[O-]
Outgoing: 2 µM (inactive)

Incoming: Again, but for C1=N\CCOCC/N=C\c2ccc(cc2)OCc2cccc(n2)COc2ccc/1cc2
Outgoing: > 100 µM (inactive)

Incoming: Again, but for C[n+]1c(-c2ccc(/C=N/NC(=O)C(=O)N/N=C/c3ccc(-c4cn5ccsc5[n+]4C)cc3)cc2)cn2ccsc21
Outgoing: > 100 µM (inactive)

Incoming: Again, but for NC(=O)CCC(NC(=O)c1c2ccccc2nc2ccccc12)C(=O)O (configuration not stated)
Outgoing: > 100 µM (inactive)

Incoming: Again, but for O=c1cc(/N=N\c2ccc(Cl)c(Cl)c2)[nH]c(=O)[nH]1
Outgoing: 1.07 µM (active)

Incoming: Again, but for CC(=O)O[C@H]1CCC2[C@@H]3CCC4Nc5[nH]ncc5C[C@]4(C)C3CC[C@@]21C (some centres not stated)
Outgoing: 21.4 µM (inactive)
